# assay: Induction of NO release per molar ratio of compound at 250 uM irradiated with 400 to 440 nm light in presence of Fe-DETC complex by ESR spectrometry
# Type: physicochemical
Recorded measurements of Activity, one per entry
Please answer using a numeric value trailed by its unit.

[
  {
    "molecularString": "COc1cc(/C=C/c2cc(C)c([N+](=O)[O-])c(C)c2)c(OC)cc1C#Cc1cc(OC)c(/C=C/c2cc(C)c([N+](=O)[O-])c(C)c2)cc1OC",
    "Activity": "9.2%"
  },
  {
    "molecularString": "COc1cc(/C=C/c2cc(C)c([N+](=O)[O-])c(C)c2)c(OC)cc1C#CC#Cc1cc(OC)c(/C=C/c2cc(C)c([N+](=O)[O-])c(C)c2)cc1OC",
    "Activity": "9.7%"
  },
  {
    "molecularString": "COc1cc(/C=C/c2cc(OC)c(/C=C/c3cc(C)c([N+](=O)[O-])c(C)c3)cc2OC)c(OC)cc1/C=C/c1cc(C)c([N+](=O)[O-])c(C)c1",
    "Activity": "1%"
  }
]

// query Which Activity value belongs to COc1cc(/C=C/c2cc(C)c([N+](=O)[O-])c(C)c2)c(OC)cc1/C=C/C=C/c1cc(OC)c(/C=C/c2cc(C)c([N+](=O)[O-])c(C)c2)cc1OC ?
// result 0.96%
